Task for the reader: assign each of the following compounds its reported pIC50.
system: SNU-1 (human gastric cancer cells); test: Proliferation inhibitory effect against human cancer cells, SNU-1; format: cell-based; conditions: SNU1, 72 h, c-met non-amplified cell, 3 days, Cell Counting Kit-8
Numbers only, as −log10 of the molar value.

>  <Smiles notation>
O=C(Nc1cc(Oc2cc(F)c(NC(=O)C3(C(=O)Nc4ccc(F)cc4)CC3)cc2F)ccn1)N1CC(O)C1

>  <Quantity kind>
pIC50

>  <Measured number>
5.70

$$$$
>  <Smiles notation>
CN1CCC(N(C)C(=O)Nc2cc(Oc3cc(F)c(NC(=O)C4(C(=O)Nc5ccc(F)cc5)CC4)cc3F)ccn2)CC1

>  <Quantity kind>
pIC50

>  <Measured number>
5.80

$$$$
>  <Smiles notation>
CN1CCN(C2CCN(C(=O)Nc3cc(Oc4cc(F)c(NC(=O)C5(C(=O)Nc6ccc(F)cc6)CC5)cc4F)ccn3)CC2)CC1

>  <Quantity kind>
pIC50

>  <Measured number>
5.64

$$$$
>  <Smiles notation>
O=C(Nc1cc(Oc2cc(F)c(NC(=O)C3(C(=O)Nc4ccc(F)cc4)CC3)cc2F)ccn1)N1CC(CO)C1

>  <Quantity kind>
pIC50

>  <Measured number>
5.44

$$$$

As a next step, examine the compound that follows.
Incoming: Specify pIC50 for "CN1CCN(C2CCN(C(=O)Nc3cc(Oc4ccc(NC(=O)C5(C(=O)Nc6ccc(F)cc6)CC5)c(F)c4)ccn3)CC2)CC1" and stop.
Outgoing: 5.38

----------
Task for the reader: assign each of the following compounds its reported IC50.
tested on: SNU-5 (human gastric cancer cells); experiment: Proliferation inhibitory effect against human cancer cells, SNU-5; format: cell-based; settings: SNU-5, 72 h, c-met amplified cell, 3 days, Cell Counting Kit-8
I'd appreciate it if you wrote the number followed by its unit.

Example results:
>  <Smiles notation>
O=C(Nc1cc(Oc2cc(F)c(NC(=O)C3(C(=O)Nc4ccc(F)cc4)CC3)cc2F)ccn1)N1CC(O)C1

>  <Target of assay>
SNU-5 (human gastric cancer cells)

>  <IC50>
6 nM

$$$$
>  <Smiles notation>
O=C(Nc1cc(Oc2ccc(NC(=O)C3(C(=O)Nc4ccc(F)cc4)CC3)c(F)c2)ccn1)N1CCC1

>  <Target of assay>
SNU-5 (human gastric cancer cells)

>  <IC50>
38 nM

$$$$
>  <Smiles notation>
O=C(Nc1cc(Oc2cc(F)c(NC(=O)C3(C(=O)Nc4ccc(F)cc4)CC3)cc2F)ccn1)N1CC(CO)C1

>  <Target of assay>
SNU-5 (human gastric cancer cells)

>  <IC50>
4.9 nM

$$$$

Parameters: items (list). Returns: IC50 for each item.
1. CN1CCN(C2CCN(C(=O)Nc3cc(Oc4ccc(NC(=O)C5(C(=O)Nc6ccc(F)cc6)CC5)c(F)c4)ccn3)CC2)CC1
2. CN1CCN(C2CCN(C(=O)Nc3cc(Oc4cc(F)c(NC(=O)C5(C(=O)Nc6ccc(F)cc6)CC5)cc4F)ccn3)CC2)CC1
3. CN1CCC(N(C)C(=O)Nc2cc(Oc3cc(F)c(NC(=O)C4(C(=O)Nc5ccc(F)cc5)CC4)cc3F)ccn2)CC1

Outgoing:
6.2 nM
1.7 nM
1.7 nM

----------
system: A549 (human lung cancer cells); experiment: Proliferation inhibitory effect against human cancer cells, A549; assay type: cell-based; conditions: A549, 72 h, c-met non-amplified cell, 3 days, Cell Counting Kit-8
Quantity kind: IC50 (µM)
One number for each entry, in µM.

Parameters: items (list). Returns: IC50 for each item.
1. CN1CCN(C2CCN(C(=O)Nc3cc(Oc4cc(F)c(NC(=O)C5(C(=O)Nc6ccc(F)cc6)CC5)cc4F)ccn3)CC2)CC1 [Example 92]
2. O=C(Nc1cc(Oc2cc(F)c(NC(=O)C3(C(=O)Nc4ccc(F)cc4)CC3)cc2F)ccn1)N1CC(CO)C1 [Example 96]
3. CN1CCN(C2CCN(C(=O)Nc3cc(Oc4ccc(NC(=O)C5(C(=O)Nc6ccc(F)cc6)CC5)c(F)c4)ccn3)CC2)CC1 [Example 15]
4. O=C(Nc1cc(Oc2cc(F)c(NC(=O)C3(C(=O)Nc4ccc(F)cc4)CC3)cc2F)ccn1)N1CC(O)C1 [Example 91]
5. CN1CCC(N(C)C(=O)Nc2cc(Oc3cc(F)c(NC(=O)C4(C(=O)Nc5ccc(F)cc5)CC4)cc3F)ccn2)CC1 [Example 94]

Outgoing:
1. 2.9
2. 2
3. 2.6
4. 1.9
5. 1.8
